Assay: Evaluation of conversion rate to active form in buffer solution (Experimental Example 1)
Type: physicochemical
Conditions: pH6.5, 1 hr, 37° C., 25 umol/L in buffer solution
Quantity Measured: Residual rate (%)

Compound	Unit Annotation	Observed Measurement
CC(C)N(CC1CCCCN1)C(=O)Oc1cc(O)c2c(=O)cc(-c3ccccc3Cl)oc2c1[C@H]1CCN(C)C[C@H]1O (stereo partly shown)	%	73.9
COCCN(CC1CCCCN1)C(=O)Oc1cc(O)c2c(=O)cc(-c3ccccc3Cl)oc2c1[C@H]1CCN(C)C[C@H]1O (stereo partly shown)	%	39.4
CN1CC[C@H](c2c(OC(=O)N(C)C[C@@H]3CCCCN3)cc(O)c3c(=O)cc(-c4ccccc4Cl)oc23)[C@H](O)C1	%	80.9
CCCN(C[C@H]1CCCCN1)C(=O)Oc1cc(O)c2c(=O)cc(-c3ccccc3Cl)oc2c1[C@H]1CCN(C)C[C@H]1O	%	75.3

* * *

Experiment: Evaluation of conversion rate to active form in buffer solution (Experimental Example 1)
Type: physicochemical
Conditions: pH6.5, 0.5 hr, 37° C., 25 umol/L in buffer solution
Where a name gives a salt, the structure may show the parent alone.

Compound	Residual rate (%)
CN1CC[C@H](c2c(OC(=O)N(C)C[C@H]3CCCCN3)cc(O)c3c(=O)cc(-c4ccccc4Cl)oc23)[C@H](O)C1	79.5
CCCN(C[C@H]1CCCCN1)C(=O)Oc1cc(O)c2c(=O)cc(-c3ccccc3Cl)oc2c1[C@H]1CCN(C)C[C@H]1O	86.6
CCN(CC1CCCCN1)C(=O)Oc1cc(O)c2c(=O)cc(-c3ccccc3Cl)oc2c1[C@H]1CCN(C)C[C@H]1O (stereo partly drawn) [Example 7, dihydrochloride]	87.6
CN1CC[C@H](c2c(OC(=O)N(CCC(F)(F)F)CC3CCCCN3)cc(O)c3c(=O)cc(-c4ccccc4Cl)oc23)[C@H](O)C1 (stereo partly drawn)	47.7
CN1CC[C@H](c2c(OC(=O)N(C)C[C@@H]3CCCCN3)cc(O)c3c(=O)cc(-c4ccccc4Cl)oc23)[C@H](O)C1	88.9
CN1CC[C@H](c2c(OC(=O)N(CCF)CC3CCCCN3)cc(O)c3c(=O)cc(-c4ccccc4Cl)oc23)[C@H](O)C1 (stereo partly drawn)	60.4

* * *

Assay: Evaluation of conversion rate to active form in buffer solution (Experimental Example 1)
Assay type: physicochemical
Settings: pH7.4, 2 hr, 37° C., 25 umol/L in buffer solution
Experimental: For Examples 1 to 16 and Comparative Examples 1 to 14, the attrition rate of the test compound and the conversion rate of the test compound to Alvocidib in a buffer solution were calculated by the following method. Examples 1 to 16 and Comparative Examples 1 to 14 were each left in buffer solutions adjusted to pH 5.0, 5.5, 6.0, 6.5, 7.0 and 7.4, respectively, at a concentration of 25 umol/L at 37° C. […]
Listed compounds paired with reported Residual rate
Quantity Measured: Residual rate (%)

Compound	Observed Measurement
CCN(C[C@@H]1CCCCN1)C(=O)Oc1cc(O)c2c(=O)cc(-c3ccccc3Cl)oc2c1[C@H]1CCN(C)C[C@H]1O [Example 1, ditrifluoroacetate]	11.3
CN1CC[C@H](c2c(OC(=O)N(C)C[C@@H]3CCCCN3)cc(O)c3c(=O)cc(-c4ccccc4Cl)oc23)[C@H](O)C1	0.0
CCNC(=O)Oc1cc(O)c2c(=O)cc(-c3ccccc3Cl)oc2c1[C@H]1CCN(C)C[C@H]1O [Comparative Example 1, reference compound]	1.0
CN1CC[C@H](c2c(OC(=O)N(C)CC3CCCCN3)cc(O)c3c(=O)cc(-c4ccccc4Cl)oc23)[C@H](O)C1 (stereo partly drawn)	38.4
CN1CC[C@H](c2c(OC(=O)N(C)C[C@H]3CCCCN3)cc(O)c3c(=O)cc(-c4ccccc4Cl)oc23)[C@H](O)C1	0.0
CN1CC[C@H](c2c(OC(=O)N(Cc3ccccc3)CC3CCCCN3)cc(O)c3c(=O)cc(-c4ccccc4Cl)oc23)[C@H](O)C1 (stereo partly drawn)	3.1
